Reference source for all entries: PubChem BioAssay (EPA / NIEHS)

System: guinea pig Muscarinic, Peripheral (Mperiperal) Receptor, Non-selective Binding, gene 100379235
Experiment: NVS_GPCR_gMPeripheral_NonSelective: NovaScreen (NVS) G Protein-Coupled Receptor Assay for guinea pig Muscarinic, Peripheral (Mperiperal) Receptor, Non-selective Binding (AID 2283250)
Records with an inconclusive call do not appear. The source made the active and inactive calls. How the source made its calls: active means hit-call score of the fitted dose curve at least 0.9, where 1 is the maximum; inconclusive means response in the unintended direction; inactive means score below 0.9.
Reply using exactly one outcome from active, inactive

For orientation, consider the following solved cases.
> print(dat)
                      smiles.representation  class.label
1  CN(C)C(=O)NC1(c2ccccc2)CCN(CC[C@@]2(c3ccc(F)c(F)c3)CN(C(=O)c3ccccc3)CCO2)CC1     inactive
2  CCN(CC)CCOc1ccc(C(=C(Cl)c2ccccc2)c2ccccc2)cc1       active
3  CN(C)C(=O)NC1(c2ccccc2)CCN(CCC[C@]2(c3ccc(Cl)c(Cl)c3)CCCN(C(=O)c3ccccc3)C2)CC1       active

// switching to the query molecule
Query: Called result for NC(=Nc1ccccc1)Nc1ccccc1
Reply: inactive

---

Read-out: Collagen III, COL3A1 (gene 1281)
Test: BSK_hDFCGF_CollagenIII: BioMAP Diversity Plus: hDFCGF Assay for Collagen III Biomarker Activity (AID 2283056)
Conditions: primary human foreskin fibroblasts; actives raise or lower the signal
The source made the active and inactive calls. The calls were made as follows: active = hit-call score of the fitted dose curve at least 0.9, where 1 is the maximum; inactive = score below 0.9.
property measured: AC50

A selection of reference data follows.
> print(dat)
                       smiles.representation   observed.result
 1  Cc1cn([C@H]2C=C[C@@H](CO)O2)c(=O)[nH]c1=O          inactive
 2                 CCCCCCCCCCCCCCOS(=O)(=O)O  7.78 µM (active)
 3                      CN(C)CCCN(C)CCCN(C)C          inactive
 4  Cc1ccc(-c2cc(C(F)(F)F)nn2-c2ccc(S(N)(=O)=O)cc2)cc1          inactive
 5                                   CC(N)=O          inactive
 6                           C=CCCCCCCCCCCCC          inactive
 7            O=C1O[C@H]([C@H](O)CO)C(O)=C1O          inactive
 8                         CCCCCCCCCCCCCCCCO          inactive
 9  O=C(N[C@@H](c1ccccc1)[C@@H]1CCCCN1)c1cccc(C(F)(F)F)c1Cl          inactive
10                                Oc1ccccc1O  10.2 µM (active)

Briefly, AC50 measured for CN(C)C(=O)NC1(c2ccccc2)CCN(CCC[C@]2(c3ccc(Cl)c(Cl)c3)CCCN(C(=O)c3ccccc3)C2)CC1 : inactive

Briefly, AC50 measured for O=C(O)c1cccnc1 : inactive

Briefly, AC50 measured for Cc1ccc(C(C)(C)C)c(O)c1 : inactive

---

Read-out: NAD(P)H dehydrogenase [quinone] 1 (NQO1), NQO1 (gene 1728)
Experiment: LTEA_HepaRG_NQO1: Life Technologies and Expression Analysis (LTEA) Assay for NAD(P)H dehydrogenase [quinone] 1 (NQO1) using HepaRG (AID 2283526)
Settings: mRNA level, 48 h; actives raise or lower the signal
Activity calls are given as the source filed them. Rule for the calls: active = hit-call score of the fitted dose curve at least 0.9, where 1 is the maximum; inactive = score below 0.9.
Reply using exactly one outcome from Yes = active, No = inactive

Query: Called result for O=NO
Reply: No

Query: Called result for CC(=O)OC1CC(C)OC(C)O1 (configuration not stated)
Reply: No

Query: Called result for CC(=O)OCC(COC(C)=O)OC(C)=O
Reply: No

Query: Called result for Cc1cc(SC2=C(O)C[C@@](CCc3ccc(N)cc3)(C(C)C)OC2=O)c(C(C)(C)C)cc1CO
Reply: No

Query: Called result for O=C(O)CN(CC(=O)O)CC(=O)O
Reply: No

Query: Called result for Cc1cc(Cc2ccc(N)c(C)c2)ccc1N
Reply: No

Query: Called result for Oc1ccccc1O
Reply: No

Query: Called result for COC(=O)[C@H]1[C@H]2C[C@@H]3c4[nH]c5cc(OC)ccc5c4CCN3C[C@H]2C[C@@H](OC(=O)c2cc(OC)c(OC)c(OC)c2)[C@@H]1OC
Reply: No

Query: Called result for CO[C@@H]1COCC[C@@H]1N[C@@H]1CC[C@@](C(=O)N2CCc3ncc(C(F)(F)F)cc3C2)(C(C)C)C1
Reply: No

Query: Called result for O=C1NC(=O)C(c2ccccc2)(c2ccccc2)N1
Reply: No

Query: Called result for NCCOCCOCCN
Reply: No

Query: Called result for O=C1O[C@H]([C@H](O)CO)C(O)=C1O
Reply: No

Query: Called result for CC(N)=O
Reply: No

Query: Called result for CC(C)(O)c1ccc(CNC(=O)c2cccnc2Oc2ccc(F)cc2)cc1
Reply: No

Query: Called result for CS(=O)(=O)c1ccc([C@@H](C[C@H]2CCC(=O)C2)C(=O)Nc2cnccn2)cc1Cl
Reply: Yes

Query: Called result for Nc1nc(Cl)nc2c1ncn2[C@H]1C[C@H](O)[C@@H](CO)O1
Reply: No

Query: Called result for Cc1c(C)c2c(c(C)c1O)CCC(C)(COc1ccc(CC3SC(=O)NC3=O)cc1)O2 (configuration not stated)
Reply: No
